System: ubiquinone binding site of complex I (IQ)
Method description: High-throughput screen: ROS production from ubiquinone binding site of complex I (IQ), isolated skeletal muscle mitochondria
Assay type: biochemical, rat
Condition summary: Table 8; percent change in ROS from DMSO controls
Measured property: IQ

- CN(C)c1ccc(C(=C2CN3CCC2CC3)c2ccc(N(C)C)cc2)cc1: 2
- c1cc2c3c(ccc(CSCCc4ccncc4)c3c1)CC2: 3.7
- O=[N+]([O-])c1ccc(Oc2ccc(S(=O)(=O)Nc3ccc4c(c3)OCCO4)cc2)cc1: −50.6
- O=S(=O)(Nc1ccc(Br)cc1)c1ccc(C2CCCCC2)cc1: −36.3
- COC(=O)c1ccc(CN(CCc2ccccc2)Cc2ccccc2)cc1: −0.5

Would you kindly look at the next entry?
Entry `CCCCN(Cc1ccccc1)Cc1cc(Cl)cc(Cl)c1O` under ubiquinone binding site of complex I (IQ) had IQ of −3.9

----------
Tested target: outer ubiquinone binding site of complex III (IIIQO) (Rattus norvegicus, UniProt P00159+P20788)
Construct: freshly isolated muscle mitochondria were assayed; from tissue; host or cells: rat skeletal muscle mitochondria (Wistar, Harlan Laboratories)
Method description: High-throughput screen: ROS production from outer ubiquinone binding site of complex III (IIIQO)
Format: biochemical
Condition summary: Table 4; 5 mM succinate, 4 μM rotenone, 2.5 μM antimycin A; compounds 2.5 μM; percent change from DMSO; read-out: % Reduction in ROS production (IIIQO)
Measured property: inhibition at 2.5 µM (%)
Please respond with the number in % and leave the unit unwritten.

* COc1ccc(-c2ccccc2)cc1NCC1=CC[C@H]2C[C@@H]1C2(C)C [Compound 41] | 24.7

CCC1CCCCN1C/C=C/c1ccc(N(C)C)cc1 (centres unmarked) [Compound 80] yielded inhibition at 2.5 µM of 12

----------
Tested target: glycerol-3-phosphate dehydrogenase (GPDH) (Rattus norvegicus, UniProt P35571)
Construct: The activity of GPDH in intact mitochondria (0.3 mg/mL) was measured; from tissue; host or cells: rat skeletal muscle mitochondria (Wistar, Harlan Laboratories)
Sequence (P35571 43-727): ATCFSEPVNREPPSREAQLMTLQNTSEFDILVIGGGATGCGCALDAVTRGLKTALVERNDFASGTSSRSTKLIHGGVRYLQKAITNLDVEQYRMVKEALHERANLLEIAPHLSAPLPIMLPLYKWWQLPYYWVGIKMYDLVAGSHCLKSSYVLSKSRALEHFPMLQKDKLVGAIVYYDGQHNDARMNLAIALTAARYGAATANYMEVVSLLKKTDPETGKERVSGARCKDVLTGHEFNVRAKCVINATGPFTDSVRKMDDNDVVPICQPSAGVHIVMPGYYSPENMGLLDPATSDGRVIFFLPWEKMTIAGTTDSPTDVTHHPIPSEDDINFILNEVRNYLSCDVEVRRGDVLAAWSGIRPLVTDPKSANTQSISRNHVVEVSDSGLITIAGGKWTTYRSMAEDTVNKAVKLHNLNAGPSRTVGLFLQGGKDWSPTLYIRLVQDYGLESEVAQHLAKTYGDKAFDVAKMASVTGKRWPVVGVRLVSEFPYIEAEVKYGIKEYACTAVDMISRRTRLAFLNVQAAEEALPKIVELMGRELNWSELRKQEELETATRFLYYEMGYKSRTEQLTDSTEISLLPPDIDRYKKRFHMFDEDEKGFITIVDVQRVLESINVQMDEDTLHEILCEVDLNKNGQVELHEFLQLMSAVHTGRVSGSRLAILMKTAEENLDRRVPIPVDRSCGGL
Method description: High-throughput screen: ROS production from glycerol-3-phosphate dehydrogenase (GPDH)
Assay type: biochemical
Set-up: dose or concentration left out as unconfirmed
Condition summary: Table 7; percent change in ROS from DMSO controls
Measured property: inhibition

A selection of reference data follows.
- COC(=O)CCC(=O)Nc1ccc(C)cc1: -0.9%
- O=C(O)CSc1cccc(C(=O)Nc2ccc(Br)cc2)c1: 14.1%

Would you kindly look at the next entry?
`C=C(C)C(=O)Nc1ccc(-c2nc3ccccc3[nH]2)cc1` yielded inhibition of 0.8%

----------
System: ubiquinone binding site of complex I (IQ)
Method description: High-throughput screen: ROS production from ubiquinone binding site of complex I (IQ), isolated skeletal muscle mitochondria
Assay type: biochemical, rat
Condition summary: Table 7; percent change in ROS from DMSO controls
Label Condition met for high-side IQ (at or above 0) and Condition not met for low-side IQ (below it).

- O=C(COc1ccc(Cl)cc1Cl)Nc1ccc(F)cc1F [Compound 24]: Condition not met
- CN(C)CCCN(CCCN(C)C)Cc1cccnc1 [Compound 33]: Condition not met
- CC(C)(C)C1=NN(c2c(Cl)cc(Cl)cc2Cl)C(=O)C1 [Compound 3]: Condition not met
- c1cc2c3c(ccc(CSCCc4ccncc4)c3c1)CC2 [Compound 36]: Condition met

In the following, a different molecule is considered.
I'd appreciate it if you could say whether COc1ccc(-c2ccccc2)cc1NCC1=CC[C@H]2C[C@@H]1C2(C)C [Compound 41] has IQ at least equal to 0. Condition met

----------
Tested target: outer ubiquinone binding site of complex III (IIIQO) (Rattus norvegicus, UniProt P00159+P20788)
Construct: freshly isolated muscle mitochondria were assayed; from tissue; host or cells: rat skeletal muscle mitochondria (Wistar, Harlan Laboratories)
Method description: High-throughput screen: ROS production from outer ubiquinone binding site of complex III (IIIQO)
Type: biochemical
Condition summary: Table 7; percent change in ROS from DMSO controls; read-out: IIIQO
Measured property: inhibition at 2.5 µM (%)
Please respond with the number in % and leave the unit unwritten.

* COc1ccc(NS(=O)(=O)c2cccc(C(=O)Nc3ccc(C)cc3)c2)cc1 | 1.9
* COC(=O)CCC(=O)Nc1ccc(C)cc1 | -0.8
* CCCCCCNC(=O)CCC(=O)O | -2.5
* CC(C)(C)NS(=O)(=O)c1ccc2c(c1)C(=O)c1ccccc1C2=O | -1

`C=C(C)C(=O)Nc1ccc(-c2nc3ccccc3[nH]2)cc1` yielded inhibition at 2.5 µM of -1.4

`CN(C)CCN(Cc1ccccc1)Cc1ccccc1Br` yielded inhibition at 2.5 µM of 8.8

----------
Tested target: outer ubiquinone binding site of complex III (IIIQO) (Rattus norvegicus, UniProt P00159+P20788)
Construct: freshly isolated muscle mitochondria were assayed; from tissue; host or cells: rat skeletal muscle mitochondria (Wistar, Harlan Laboratories)
Method description: High-throughput screen: ROS production from outer ubiquinone binding site of complex III (IIIQO)
Assay type: biochemical
Condition summary: Table 7; percent change in ROS from DMSO controls; read-out: IIIQO
Catalogue of molecules with associated inhibition at 2.5 µM
Please respond with the number in % and leave the unit unwritten.

A selection of reference data follows.
• COc1ccc(-c2ccccc2)cc1NCC1=CC[C@H]2C[C@@H]1C2(C)C = 24.7
• Cc1ccc(C)c(CN(CCCN(C)C)CCCN(C)C)c1 = -2.5
• Cl.OC12CCCCC1C(c1cccc(Cl)c1)NCC2 (centres unmarked) = 9.8

`CCCC(=O)Nc1ccc(-c2nc3cc4ccccc4cc3[nH]2)cc1` yielded inhibition at 2.5 µM of -1.1

CC1=CC(C)C(C2OCC(CN3CCCCC3)O2)C(C)C1 (centres unmarked) yielded inhibition at 2.5 µM of 9

`c1cc2c3c(ccc(CSCCc4ccncc4)c3c1)CC2` yielded inhibition at 2.5 µM of 33.6

`O=C(O)CCC(=O)Nc1ccc(-c2nc3cc(C(=O)c4ccccc4)ccc3[nH]2)cc1` yielded inhibition at 2.5 µM of -5.5

`C=CCSc1nc(N)c(C#N)c(CC)c1C#N` yielded inhibition at 2.5 µM of -9.2

`CCOc1ccc(C(=O)Nc2ccc(-c3nc4ccccc4[nH]3)cc2)cc1` yielded inhibition at 2.5 µM of 1

`COc1ccc(Cl)cc1N(Cc1ccccc1)Cc1ccccc1` yielded inhibition at 2.5 µM of 49.4

`Cc1ccccc1NS(=O)(=O)c1ccc(-c2ccc(S(=O)(=O)Nc3ccccc3C)cc2)cc1` yielded inhibition at 2.5 µM of -0.2

`Oc1nnc(Cc2ccncc2)c2ccccc12` yielded inhibition at 2.5 µM of -5.4

`O=C(Nc1ccccc1C(=O)O)c1ccccc1` yielded inhibition at 2.5 µM of -5.4

`Cc1ccc(S(=O)(=O)Nc2nnc(C)s2)cc1` yielded inhibition at 2.5 µM of 0.1

----------
Tested target: outer ubiquinone binding site of complex III (IIIQO) (Rattus norvegicus, UniProt P00159+P20788)
Construct: freshly isolated muscle mitochondria were assayed; from tissue; host or cells: rat skeletal muscle mitochondria (Wistar, Harlan Laboratories)
Method description: High-throughput screen: ROS production from outer ubiquinone binding site of complex III (IIIQO)
Format: biochemical
Condition summary: Table 8; percent change in ROS from DMSO controls
Binary call on IIIQO with cut-off 0.2: strictly below means Y, and equality or higher means N.

Examples from the recorded data:
• Cc1cc(C)c(OCC(O)CNC(C)(C)CC(C)(C)C)c(C)c1.Cl (centres unmarked) = Y
• Cc1ccc(C)c(CN(CCCN(C)C)CCCN(C)C)c1 = N
• Oc1nnc(Cc2ccncc2)c2ccccc12 = N

Item `COc1cc(CN(CCN(C)C)Cc2ccccc2)cc(OC)c1` : IIIQO beneath 0.2, strictly? Y

Item `c1cc2c3c(ccc(CSCCc4ccncc4)c3c1)CC2` : IIIQO beneath 0.2, strictly? Y

Item O=C(Nc1ccccc1F)[C@@H]1C2C=CC(C2)[C@@H]1C(=O)O (some centres unmarked) : IIIQO beneath 0.2, strictly? N

Item `COc1ccc(NS(=O)(=O)c2cccc(C(=O)Nc3ccc(C)cc3)c2)cc1` : IIIQO beneath 0.2, strictly? Y
